Biological target: UniProtKB P35869
Sequence (P35869 11-848): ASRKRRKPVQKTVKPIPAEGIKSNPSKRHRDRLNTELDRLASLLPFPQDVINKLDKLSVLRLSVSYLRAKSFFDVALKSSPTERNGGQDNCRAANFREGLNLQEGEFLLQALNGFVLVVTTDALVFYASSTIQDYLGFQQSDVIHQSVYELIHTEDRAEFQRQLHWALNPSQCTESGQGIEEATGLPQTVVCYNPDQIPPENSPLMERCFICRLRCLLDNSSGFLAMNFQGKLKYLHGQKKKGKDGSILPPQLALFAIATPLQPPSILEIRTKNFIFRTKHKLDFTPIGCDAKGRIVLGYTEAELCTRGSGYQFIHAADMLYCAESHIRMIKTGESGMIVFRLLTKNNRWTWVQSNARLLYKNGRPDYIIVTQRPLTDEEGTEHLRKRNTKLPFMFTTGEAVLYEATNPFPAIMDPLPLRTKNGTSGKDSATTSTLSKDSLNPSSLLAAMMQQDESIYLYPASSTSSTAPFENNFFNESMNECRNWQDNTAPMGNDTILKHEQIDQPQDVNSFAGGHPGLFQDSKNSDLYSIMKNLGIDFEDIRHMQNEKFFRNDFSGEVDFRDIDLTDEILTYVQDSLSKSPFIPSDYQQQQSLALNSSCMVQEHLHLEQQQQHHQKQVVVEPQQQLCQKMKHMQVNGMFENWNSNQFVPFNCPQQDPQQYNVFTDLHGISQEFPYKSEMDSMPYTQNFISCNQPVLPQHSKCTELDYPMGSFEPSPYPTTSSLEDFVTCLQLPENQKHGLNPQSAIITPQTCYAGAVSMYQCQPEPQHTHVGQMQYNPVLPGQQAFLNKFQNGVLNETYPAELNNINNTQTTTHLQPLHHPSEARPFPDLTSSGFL
Experiment: In Vitro Assay 1: XRE-luciferase reporter assay, antagonism in human cell line (HepG2)
Conditions: Assay 1: AhR-Luc Human Antagonism (IC50, nM), unmarked values: kynurenine 200 μM, 6 hours
Examples of compounds with documented IC50 follow.

O=[N+]([O-])c1cc(-c2cc(N3CC[C@H](O)C3)nc(-c3cccnc3)n2)ccc1N1CCOCC1 ... > 1000 nM
OC[C@H]1CCN(c2cc(-c3ccc(Cl)cc3)nc(-c3cccnc3)n2)C[C@H]1O ... 10 to 100 nM
CS(=O)(=O)C1(CO)CCN(c2cc(-c3ccc(Cl)cc3)nc(-c3cccnc3)n2)CC1 ... < 10 nM
C=CS(=O)(=O)N1CCN(c2cc(-c3ccc(Cl)cc3)nc(-c3cccnc3)n2)CC1 ... 10 to 100 nM
OC[C@@H]1CCN(c2cc(-c3ccc(C(F)(F)F)cc3)nc(-c3cccnc3)n2)C[C@@H]1O ... < 10 nM

[ask] Could you share which IC50 value was measured for CS(=O)(=O)N1CCN(c2cc(-c3ccc(Cl)cc3)nc(-c3cncc(F)c3)n2)CC1 ?
[reply] 10 to 100 nM

[ask] Could you share which IC50 value was measured for CC(C)(C)OC(=O)N1CCN(c2cc(-c3ccc(Cl)cc3)nc(-c3cccnc3)n2)C[C@H]1CO ?
[reply] 10 to 100 nM

[ask] Could you share which IC50 value was measured for CS(=O)(=O)N1CC2CC1CN2c1cc(-c2ccc(Cl)cc2)nc(-c2cccnc2)n1 (centres unmarked) ?
[reply] < 10 nM
